Hey, just so you know, these numbers are from ChEMBL document CHEMBL5625234.

# TARGET OF ASSAY: Prostaglandin G/H synthase 1 (Ovis aries, UniProt P05979)
# Sequence (P05979 whole entry): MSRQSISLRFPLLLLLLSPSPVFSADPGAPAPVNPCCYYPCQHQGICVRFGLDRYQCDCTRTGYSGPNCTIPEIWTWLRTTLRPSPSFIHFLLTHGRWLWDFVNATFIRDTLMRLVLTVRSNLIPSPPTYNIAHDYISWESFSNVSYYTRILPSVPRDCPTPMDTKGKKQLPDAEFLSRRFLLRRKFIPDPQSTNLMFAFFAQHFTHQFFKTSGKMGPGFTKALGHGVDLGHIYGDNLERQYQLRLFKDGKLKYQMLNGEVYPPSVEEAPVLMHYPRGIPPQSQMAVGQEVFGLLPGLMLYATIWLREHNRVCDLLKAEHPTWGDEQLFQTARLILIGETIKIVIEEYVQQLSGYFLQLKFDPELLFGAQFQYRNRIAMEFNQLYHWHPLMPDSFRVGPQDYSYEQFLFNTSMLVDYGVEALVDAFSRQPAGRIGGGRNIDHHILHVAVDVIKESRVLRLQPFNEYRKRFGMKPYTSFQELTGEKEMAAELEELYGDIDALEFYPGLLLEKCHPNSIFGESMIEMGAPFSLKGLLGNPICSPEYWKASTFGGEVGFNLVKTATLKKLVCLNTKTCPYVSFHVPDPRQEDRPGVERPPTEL
Returns: string. Value is YES if measured IC50 is below 10 µM, and NO if it is greater than or equal to it.

A selection of reference data follows.
O=[N+]([O-])c1ccc(-c2nc(Nc3ccc(F)cc3)c3c4c(sc3n2)CCCC4)cc1	YES
O=[N+]([O-])c1ccc(-c2nc(Nc3cccc(Br)c3)c3c4c(sc3n2)CCCC4)cc1	YES
O=C(C/C(=C/c1cccc([N+](=O)[O-])c1)c1n[nH]c(=S)o1)c1ccc(Cl)c(Cl)c1	NO
Clc1ccc(-c2nc(Nc3cccc(Br)c3)c3c4c(sc3n2)CCCC4)cc1	YES

### Prompt Please determine if "COc1ccc(-c2nc(Nc3ccc(F)cc3)c3c4c(sc3n2)CCCC4)cc1" is below 10 µM in terms of IC50.
### Response NO

### Prompt Note, next up: "O=c1[nH]/c(=C\c2nnc(-c3ccc(O)cc3)s2)s/c1=C\c1ccc(Cl)c(Cl)c1"
### Response NO

### Prompt Note, next up: "COc1ccc(-c2nc(NNc3ncnc4sc5c(c34)CCCC5)c3c4c(sc3n2)CCCC4)cc1"
### Response NO

### Prompt Note, next up: "Clc1ccc(-c2nc(Nc3ccc(Br)cc3)c3c4c(sc3n2)CCCC4)cc1"
### Response YES

---

# TARGET OF ASSAY: Prostaglandin G/H synthase 2 (Homo sapiens, UniProt P35354)
# Sequence (P35354 whole entry): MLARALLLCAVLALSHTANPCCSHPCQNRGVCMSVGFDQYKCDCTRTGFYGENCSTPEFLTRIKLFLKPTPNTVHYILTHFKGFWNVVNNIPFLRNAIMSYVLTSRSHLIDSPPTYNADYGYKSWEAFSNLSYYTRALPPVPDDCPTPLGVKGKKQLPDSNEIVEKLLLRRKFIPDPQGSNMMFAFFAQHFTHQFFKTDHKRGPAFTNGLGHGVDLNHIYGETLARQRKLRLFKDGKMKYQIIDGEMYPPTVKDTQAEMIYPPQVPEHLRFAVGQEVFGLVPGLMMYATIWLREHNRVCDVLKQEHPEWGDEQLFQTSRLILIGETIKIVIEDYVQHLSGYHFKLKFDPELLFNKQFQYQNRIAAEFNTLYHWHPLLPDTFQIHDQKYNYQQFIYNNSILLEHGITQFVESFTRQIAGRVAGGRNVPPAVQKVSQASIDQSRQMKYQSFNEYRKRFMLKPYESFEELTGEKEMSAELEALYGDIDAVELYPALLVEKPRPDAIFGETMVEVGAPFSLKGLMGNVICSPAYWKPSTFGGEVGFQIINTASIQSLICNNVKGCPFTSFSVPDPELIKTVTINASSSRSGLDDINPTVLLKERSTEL
# EXPERIMENTAL DETAILS: Inhibition of human COX-2 using arachidonic acid as substrate incubated for 30 secs by ELISA
MEASURED METRIC: IC50 (nM)
Just the number in nM, nothing appended.

### Prompt Return reported IC50; argument: CS(=O)(=O)c1ccc(C2CN(c3ccc(C(F)(F)F)cc3)N=N2)cc1 (stereo unspecified)
### Response 226

---

# TARGET OF ASSAY: Polyunsaturated fatty acid lipoxygenase ALOX15 (Homo sapiens)
# Sequence (P16050 whole entry): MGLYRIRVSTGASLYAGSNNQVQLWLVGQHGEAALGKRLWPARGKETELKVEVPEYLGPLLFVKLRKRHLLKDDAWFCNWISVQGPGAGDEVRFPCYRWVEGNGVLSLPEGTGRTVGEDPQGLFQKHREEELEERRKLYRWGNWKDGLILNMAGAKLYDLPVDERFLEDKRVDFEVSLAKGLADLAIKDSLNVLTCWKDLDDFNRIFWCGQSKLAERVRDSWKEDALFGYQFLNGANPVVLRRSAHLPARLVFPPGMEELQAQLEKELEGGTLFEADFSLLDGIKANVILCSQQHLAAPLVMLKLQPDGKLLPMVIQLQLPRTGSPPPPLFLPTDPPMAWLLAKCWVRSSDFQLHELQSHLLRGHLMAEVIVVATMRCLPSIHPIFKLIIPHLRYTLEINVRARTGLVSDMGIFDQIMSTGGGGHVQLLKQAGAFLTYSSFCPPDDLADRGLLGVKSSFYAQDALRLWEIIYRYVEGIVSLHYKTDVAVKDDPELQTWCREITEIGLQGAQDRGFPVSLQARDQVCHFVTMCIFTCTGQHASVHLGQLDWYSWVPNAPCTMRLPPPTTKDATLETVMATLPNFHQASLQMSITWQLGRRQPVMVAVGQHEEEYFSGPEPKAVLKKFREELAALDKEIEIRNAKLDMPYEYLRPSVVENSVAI
MEASURED METRIC: IC50 (nM)
Just the number in nM, nothing appended.

### Prompt Return reported IC50; argument: "CCn1c(-n2cc(/C=N/N=c3\scc(-c4ccc(Br)cc4)n3-c3ccccc3)c(-c3ccc(Cl)cc3)n2)nc2[nH]c(=O)n(C)c(=O)c21"
### Response 1760

---

# TARGET OF ASSAY: Prostaglandin G/H synthase 2 (Ovis aries)
# Sequence (P79208 whole entry): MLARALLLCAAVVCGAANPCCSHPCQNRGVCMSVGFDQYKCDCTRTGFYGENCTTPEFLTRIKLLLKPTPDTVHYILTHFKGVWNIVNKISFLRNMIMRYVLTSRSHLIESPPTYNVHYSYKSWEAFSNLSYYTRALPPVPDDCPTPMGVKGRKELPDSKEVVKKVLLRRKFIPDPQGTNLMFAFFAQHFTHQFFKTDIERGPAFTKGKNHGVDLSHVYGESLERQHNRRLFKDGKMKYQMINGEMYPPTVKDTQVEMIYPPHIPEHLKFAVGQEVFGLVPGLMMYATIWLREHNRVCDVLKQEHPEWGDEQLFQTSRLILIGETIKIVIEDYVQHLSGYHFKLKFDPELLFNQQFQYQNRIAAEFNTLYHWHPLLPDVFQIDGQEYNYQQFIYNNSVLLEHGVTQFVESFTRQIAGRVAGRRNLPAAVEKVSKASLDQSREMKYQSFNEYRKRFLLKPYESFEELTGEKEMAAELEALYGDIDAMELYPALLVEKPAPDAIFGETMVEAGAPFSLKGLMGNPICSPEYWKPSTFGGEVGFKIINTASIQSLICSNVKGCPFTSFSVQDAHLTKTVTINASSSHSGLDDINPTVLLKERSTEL
MEASURED METRIC: IC50 (nM)
Just the number in nM, nothing appended.

### Prompt Return reported IC50; argument: "Clc1ccc(-c2nn(-c3ccccc3)cc2/C=N/Nc2ncnc3c(-c4ccccc4)csc23)cc1"
### Response 48

---

# System: RAW264.7
# EXPERIMENTAL DETAILS: cells
# APPLIED CONDITIONS: Mus musculus
IC50 values, listed per item

Examples with their reported IC50 follow.
Cc1ccc(Nc2nc(-c3ccc([N+](=O)[O-])cc3)nc3sc4c(c23)CCCC4)cc1	> 100 µM
O=[N+]([O-])c1ccc(-c2nc(Nc3ccc(F)cc3)c3c4c(sc3n2)CCCC4)cc1	> 100 µM

### Prompt Any idea what IC50 came out for "COc1ccc(-c2nc(Nc3ccc(Br)cc3)c3c4c(sc3n2)CCCC4)cc1" on RAW264.7?
### Response > 100 µM

---

# TARGET OF ASSAY: Prostaglandin G/H synthase 2 (Homo sapiens, UniProt P35354)
# EXPERIMENTAL DETAILS: Inhibition of human COX-2
MEASURED METRIC: pIC50
Just the number, please; pIC50 means minus log10 of the concentration in mol/L.

### Prompt Return reported pIC50; argument: "CSc1nnc2n(Cc3ccccc3)c(=O)c3c4c(sc3n12)CCCC4"
### Response 6.28
